# Tested on: Mycobacterium tuberculosis
# assay-remarks: Bactericidal activity against replicating Mycobacterium tuberculosis at 1 to 10 times MIC after 21 days
# Format: functional, organism-based
Active and inactive are the calls of the source. The rule behind the calls is not given here.
observed-property: Activity

query-smiles: CCc1nc2ccccc2n1CCCCSc1nnc(-c2ccc(Cl)cc2)o1
value-reported: inactive

query-smiles: CCc1nc2ccc(C)cc2n1CCCOc1ccc(C)c(Cl)c1
value-reported: inactive

query-smiles: CCc1nc2ccc(C)cc2n1CCCNc1ccc(Br)c(C)c1
value-reported: inactive

query-smiles: CCc1nc2ccccc2n1CCCCNc1ccccc1
value-reported: inactive

----------
# System: Mycobacterium tuberculosis
# assay-remarks: Antitubercular activity against Mycobacterium tuberculosis H37Rv ATCC 25618 under aerobic condition after 5 days
# Format: functional
# experimental-setup: H37Rv ATCC 25618, 120 h
Decide using MIC alone. Strictly below 0.3 µM: criterion met. Equal to or above 0.3 µM: criterion not met.

# example entries with known answers
molecule: CCc1nc2ccccc2n1CCOc1ccc(Cl)cc1
target-system: Mycobacterium tuberculosis
class-assignment: criterion not met

molecule: CCc1nc2ccccc2n1CCCCOC
target-system: Mycobacterium tuberculosis
class-assignment: criterion not met

molecule: CCc1nc2ccccc2n1CCCCNc1ccccc1
target-system: Mycobacterium tuberculosis
class-assignment: criterion not met

molecule: Cc1nc2ccccc2n1CCOc1ccc(Cl)cc1
target-system: Mycobacterium tuberculosis
class-assignment: criterion not met

# TODO verify MIC < 0.3 µM strictly for this molecule: CCc1nc2cnc(C)cc2n1CCCCOc1ccccc1
criterion not met

# TODO verify MIC < 0.3 µM strictly for this molecule: CCc1nc2ccc(C)cc2n1CCCOc1ccc(C)c(C)c1
criterion met

# TODO verify MIC < 0.3 µM strictly for this molecule: CCc1nc2ccccc2n1CCCCSc1nnc(-c2ccc(Cl)cc2)o1
criterion met

# TODO verify MIC < 0.3 µM strictly for this molecule: CCc1nc2ccccc2n1CCCCOc1ccccc1
criterion not met

# TODO verify MIC < 0.3 µM strictly for this molecule: CCc1nc2ccc(Cl)cc2n1CCCCOc1ccccc1
criterion not met

# TODO verify MIC < 0.3 µM strictly for this molecule: CCc1nc2ccccc2n1CCCCOc1c(Cl)cccc1Cl
criterion not met

# TODO verify MIC < 0.3 µM strictly for this molecule: CCc1nc2ccccc2n1CCCOc1ccccc1
criterion not met

# TODO verify MIC < 0.3 µM strictly for this molecule: CCc1nc2ccccc2n1CC1COc2ccccc2O1 (stereo not drawn)
criterion not met

# TODO verify MIC < 0.3 µM strictly for this molecule: CCc1nc2ccccc2n1CCCCOc1ccc(Cl)cc1
criterion not met

# TODO verify MIC < 0.3 µM strictly for this molecule: c1ccc(OCCCCn2ncc3ccccc32)cc1
criterion not met

# TODO verify MIC < 0.3 µM strictly for this molecule: CCc1nc2ccc(C)cc2n1CCCOc1ccc(C)cc1
criterion met

# TODO verify MIC < 0.3 µM strictly for this molecule: CCc1nc2ccccc2n1CCCCOc1ccc(C)c(Cl)c1
criterion met

# TODO verify MIC < 0.3 µM strictly for this molecule: CN1CCN(c2nc3ccccc3n2CCCCOc2ccccc2)CC1
criterion not met

# TODO verify MIC < 0.3 µM strictly for this molecule: Nc1nc2ccccc2n1CCCCOc1ccccc1
criterion not met

# TODO verify MIC < 0.3 µM strictly for this molecule: CCc1nc2ccccc2n1CCCCOc1ccncc1
criterion not met

# TODO verify MIC < 0.3 µM strictly for this molecule: CCc1nc2ccccc2n1CCCCOc1ccc(N2CCOCC2)cc1
criterion not met
